- SYSTEM_UNDER_TEST: Translocator protein (Rattus norvegicus)
- Sequence (P16257 whole entry, looked up): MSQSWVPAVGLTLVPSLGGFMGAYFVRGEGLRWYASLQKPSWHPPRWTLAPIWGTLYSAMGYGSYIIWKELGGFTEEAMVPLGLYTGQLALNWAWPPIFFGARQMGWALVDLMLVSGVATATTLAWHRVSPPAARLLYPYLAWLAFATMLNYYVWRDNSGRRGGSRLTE
- METHOD: Displacement of [3H]-PK11195 from TSPO in Sprague-Dawley rat brain homogenates after 90 mins by liquid scintillation counting analysis
- Format: tissue-based
PARAMETER_MEASURED: Ki

Provide Ki value for the following molecule: CN(C)C(=O)c1nc2ccccc2c(-c2ccccc2)c1CI
1.34 µM

###

- METHOD: Permeability of the compound using immobilized artificial membrane
- Assay type: physicochemical
PARAMETER_MEASURED: Pm
Number, no unit, nothing else.

Provide Pm value for the following compound: CN(C)C(=O)c1nc2ccccc2c(-c2ccccc2)c1CI
0.55

Provide Pm value for the following compound: O=C(c1nc2ccccc2c(-c2ccccc2)c1CI)N1CCOCC1
0.54

Provide Pm value for the following compound: O=C(c1cc(-c2ccccc2I)c2ccccc2n1)N1CCOCC1
0.26

Provide Pm value for the following compound: O=C(c1cc(-c2ccccc2)c2cccc(I)c2n1)N1CCOCC1
0.41

Provide Pm value for the following compound: O=C(c1cc(-c2ccccc2)c2cc(I)ccc2n1)N1CCOCC1
0.55

Every entry's value here was drawn from ChEMBL document CHEMBL3217571.
